Kindly supply the reported pEC50 values for the records listed here.
- target_or_system: human GcgR (Homo sapiens, UniProt P47871)
- Sequence (P47871 26-477): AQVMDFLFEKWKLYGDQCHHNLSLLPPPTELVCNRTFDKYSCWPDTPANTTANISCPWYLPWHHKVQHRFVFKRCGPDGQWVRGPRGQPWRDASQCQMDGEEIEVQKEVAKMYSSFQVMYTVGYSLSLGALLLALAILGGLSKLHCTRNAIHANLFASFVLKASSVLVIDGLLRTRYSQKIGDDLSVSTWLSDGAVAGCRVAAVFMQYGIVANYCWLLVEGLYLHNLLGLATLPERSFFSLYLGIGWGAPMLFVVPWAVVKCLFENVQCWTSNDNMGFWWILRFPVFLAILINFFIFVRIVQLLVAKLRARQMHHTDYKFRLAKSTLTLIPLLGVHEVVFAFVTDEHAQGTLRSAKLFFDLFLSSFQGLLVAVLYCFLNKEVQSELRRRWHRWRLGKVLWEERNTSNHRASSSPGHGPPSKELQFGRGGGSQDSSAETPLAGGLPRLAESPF
- assay_protocol: Functional cAMP activity in the presence of 1% HSA
- Type: cell-based
- setup_conditions: read-out: cAMP Rel EC50, hGcgR
Starred links: 1 amine or outer side, 2 acyl side, 3 side chain; linkers in the order of their positions; H or OH if unused. Non-standard residues stand in square brackets, D forms with d. Groups on a side chain read outwards from the residue. No end group written: not given here. *: point of attachment. C20 diacid = O=C(O)CCCCCCCCCCCCCCCCCCC(=O)*; C18 diacid = O=C(O)CCCCCCCCCCCCCCCCC(=O)*; αMePhe(2-F) = C[C@](N)(Cc1ccccc1F)C(=O)O; γGlu = O=C(O)[C@H](CCC(=O)[*:2])N[*:1]; αMe4Pal = C[C@](N)(Cc1ccncc1)C(=O)O; 4Pal = N[C@@H](Cc1ccncc1)C(=O)O; αMeL = CC(C)C[C@](C)(N)C(=O)O; Orn = NCCC[C@H](N)C(=O)O; AEEA = NCCOCCOCC(=O)O; Aib = CC(C)(N)C(=O)O
// scale note: pEC50 = -log10(conc_M); give the bare number

Query :: Let me know recorded pEC50 for H-Y[Aib]QGT[αMePhe(2-F)]TSD[4Pal]SILLDKK([γGlu-γGlu-C18 diacid])AQ[Aib]AFIEYLTEGGPSSGAPPPSGTE-NH2 [Example 554] , thanks.
Result :: 6.02

Query :: For H-Y[Aib]QGT[αMePhe(2-F)]TSDYSKLLDKIAQK([AEEA-γGlu-C20 diacid])AFIEYLIEGGPSSGAPPPSEG-NH2 [Example 339] , write its pEC50.
Result :: 5.82

Query :: Name the recorded pEC50 of the item Y[Aib]QGTFTSD[4Pal]SQ[αMeL]LD[Orn]K([γGlu-γGlu-C18 diacid])AQ[αMe4Pal]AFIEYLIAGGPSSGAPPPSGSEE-NH2 [Example 1031] in your answer.
Result :: 5.92

Query :: Report pEC50 for H-Y[Aib]QGTFTSDFS[Orn][αMeL]LDKK([AEEA-AEEA-γGlu-C18 diacid])AQ[Aib]AFIEYLLE[dA]GPSSG[4Pal]PPPSGH-NH2 [Example 257]
Result :: 5.92

Query :: Report pEC50 for H-Y[Aib]QGTFTSD[4Pal]SR[αMeL]LDKK([AEEA-AEEA-γGlu-C18 diacid])AQ[αMe4Pal]AFIEYLIE[Aib]GPSSGAPPPSGS-NH2 [Example 815]
Result :: 6.10
